- Test system: KG-1 cell line (FGFR 1-fusion)
- ASSAY_PROCEDURE: Cancer cell line cell viability assay (Cell Titer-Glo), 72 hr
- Format: cell-based
- EXPERIMENTAL_CONTEXT: Homo sapiens, KG-1, KG-1 cell line (FGFR1-fusion)
The reader will find reported IC50 values listed item by item below.

| STRUCTURE | OBSERVED_RESULT |
| --- | --- |
| COCCNC1(C)CN(c2ncc(-c3n[nH]c4cc(OC)c(O[C@H](C)c5c(Cl)cncc5Cl)cc34)cc2C#N)C1 | 50 to 200 nM |
| COc1cc2[nH]nc(-c3ccc(N4CC(C)(NCCO)C4)nc3)c2cc1O[C@H](C)c1c(Cl)cncc1Cl | 50 to 200 nM |
| C[C@@H](Oc1ccc2[nH]nc(-c3ccc(N4CC(C)(NCCF)C4)nn3)c2c1)c1c(Cl)cncc1Cl | 50 to 200 nM |

Please find the next compound below.
Briefly, IC50 measured for `Cc1ncc(Cl)c([C@@H](C)Oc2ccc3[nH]nc(-c4cnc(N5CC(C)(NC6CCC6)C5)c(C#N)c4)c3c2)c1Cl` : 200 to 1000 nM
